Assay: NCI Yeast Anticancer Drug Screen. Data for the rad50 strain (AID 155);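 note: 0% = growth of vehicle-only cultures of the same strain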
Details: S. cerevisiae rad50 strain growth inhibition; at 50.0 µM
The panel holds about 79,000 compounds, 15% with a hit somewhere; the sample as a whole holds those more often. Calls of active or inactive are those of the source. Cut-off read from the data, not from the text of the source: active = growth inhibition above about 70%; inactive = the rest.
Reply using exactly one outcome from active, inactive

Here's what some known entries look like.
{"molecule": "C(CCC[Te][Te]CCCCCCOC1CCCCO1)CCOC1CCCCO1 (stereo not given)", "group-label": "active"}
{"molecule": "COc1cc2c(cc1OC)C13CCN4CC5=CCOC6CC(=O)N2C1C6C5CC43 (stereo not given) (tested in a mixture with another compound)", "group-label": "inactive"}

Ask: I'd appreciate the recorded outcome for O=[N+]([O-])c1ccc(O)c(Cl)c1 from this test.
Reply: inactive

Ask: I'd appreciate the recorded outcome for [Au+].c1c[n-]cn1.c1ccc([PH+](c2ccccc2)c2ccccc2)cc1 from this test.
Reply: active

Ask: I'd appreciate the recorded outcome for C=CO/C(C)=C(\[Se]c1ccccc1)C(C)=O from this test.
Reply: active

---

Catalogue of compounds with associated growth inhibition
Experiment: NCI Yeast Anticancer Drug Screen. Data for the sgs1 strain (AID 173);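 note: 0% = growth of vehicle-only control cultures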
Settings: S. cerevisiae sgs1 mutant, at 33.0 µM, active compounds read high
About 79,000 compounds went through this panel and 15% of them were active in at least one assay; those are over-represented in the sample as a whole.
Write the value in % as a bare number.

{"compound": "O=C(c1ccccc1)C1C(c2ccccc2[N+](=O)[O-])N1C1CCCCC1 (stereo unspecified)", "growth inhibition, %": 85}
{"compound": "O=C1c2ccccc2C(=O)C(Cl)C1Cl (stereo unspecified)", "growth inhibition, %": 99}
{"compound": "O=C(NNC(=O)OCC(Cl)(Cl)Cl)OCC(Cl)(Cl)Cl", "growth inhibition, %": 92}

Ask: Given the compound O=C1c2ccc3ccccc3c2CCC1N1CCCCC1 (stereo unspecified) , what is its reported growth inhibition?
Reply: 92

Ask: Given the compound COc1cc(O)c2c(O)c3c(c4c2c1[C@]1(C4)C(C)=CCCC1(C)C)[C@H](O)[C@@]1(O)CC(=O)C(C(N)=O)=C(O)[C@@]1(O)C3=O , what is its reported growth inhibition?
Reply: 97

Ask: Given the compound CNC(=O)OCC1C2=C(C(=O)C(C)=C(N)C2=O)N2CC3C(N3C)C12OC (stereo unspecified) , what is its reported growth inhibition?
Reply: 29

Ask: Given the compound COC1CC(CC2CCC(C)C(C(C)C(=O)O)O2)OC2(OC(C)(C3CCC(C)(C4OC(C5OC(O)(CO)C(C)CC5C)CC4C)O3)CC2C)C1C (stereo unspecified) , what is its reported growth inhibition?
Reply: 88

Ask: Given the compound COC1C(O)C(C)OC(OC2C(Oc3cccc4c(O)c5c(=O)oc6ccc(C)c7c(=O)oc(c34)c5c67)OC(C)C(O)C2O)C1O (stereo unspecified) , what is its reported growth inhibition?
Reply: 20

Ask: Given the compound CN(CCc1ccc(Br)cc1)CCN1CCCCC1 , what is its reported growth inhibition?
Reply: 96

Ask: Given the compound BrCC[N+]12CC[N+](CCBr)(CC1)C2 , what is its reported growth inhibition?
Reply: 77

Ask: Given the compound CC[C@@]1(O)C(=O)OCc2c1cc1n(c2=O)Cc2cc3c(NC(=O)CN)cccc3nc2-1 , what is its reported growth inhibition?
Reply: -1
